target-or-system: FGFR2 (N549H) (Homo sapiens, UniProt P21802, N549H)
Construct: purchased Millipore 14-742
Sequence (P21802 22-821 N549H): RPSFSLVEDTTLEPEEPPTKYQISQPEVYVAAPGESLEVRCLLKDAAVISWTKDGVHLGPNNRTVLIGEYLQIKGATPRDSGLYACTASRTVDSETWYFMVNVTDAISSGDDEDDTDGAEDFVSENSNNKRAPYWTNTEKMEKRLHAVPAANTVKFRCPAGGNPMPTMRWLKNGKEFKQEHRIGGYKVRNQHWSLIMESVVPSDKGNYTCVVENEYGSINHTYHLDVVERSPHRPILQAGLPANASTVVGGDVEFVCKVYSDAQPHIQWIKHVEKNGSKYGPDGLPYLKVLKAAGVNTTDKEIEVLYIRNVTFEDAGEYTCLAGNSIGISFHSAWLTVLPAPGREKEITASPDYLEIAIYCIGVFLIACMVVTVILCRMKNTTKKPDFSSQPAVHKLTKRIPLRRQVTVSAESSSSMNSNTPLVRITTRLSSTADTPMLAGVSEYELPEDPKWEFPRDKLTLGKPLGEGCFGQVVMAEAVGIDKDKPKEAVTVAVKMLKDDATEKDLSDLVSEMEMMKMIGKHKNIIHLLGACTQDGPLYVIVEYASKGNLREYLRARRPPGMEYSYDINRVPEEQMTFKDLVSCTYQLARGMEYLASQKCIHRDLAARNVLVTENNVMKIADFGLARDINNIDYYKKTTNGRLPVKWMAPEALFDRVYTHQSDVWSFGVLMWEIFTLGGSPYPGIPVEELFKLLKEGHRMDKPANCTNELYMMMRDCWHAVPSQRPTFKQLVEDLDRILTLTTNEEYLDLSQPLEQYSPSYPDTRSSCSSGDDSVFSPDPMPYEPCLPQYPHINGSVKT
experiment-summary: FGFR2 kinase activity assay (fluorescent ELISA)
Format: biochemical
settings: 30 μM compound
Recorded inhibition at 30 µM determines the group label, using lowest = under 60%, middle = from 60% up to 70%, highest = 70% and over

// return the class label for CCN(c1cc(O)ccc1C)c1nccn2c(NC(=O)OC(C)C)nnc12 lowest

Looking at CC(C)OC(=O)Nc1nnc2c(Nc3ccc(Br)cc3)nccn12 , which class would you pick? highest

Record CC(C)OC(=O)Nc1nnc2c(Nc3ccc(C(C)(C)C)cc3)nccn12 — which class? middle

For this compound, which bin applies? COc1ccccc1N(C)c1nccn2c(NC(=O)OC(C)C)nnc12 middle

# bin label for Cc1cccc2c(CCNc3nccn4c(NC(=O)OC(C)C)nnc34)c[nH]c12 lowest

Dear colleague, I would appreciate it if you could identify the bin for CCN(c1ccccc1C)c1nccn2c(NC(=O)OC(C)C)nnc12 and reply at your convenience. highest

Each compound maps to one class by inhibition at 30 µM. Which class for CC(C)OC(=O)Nc1nnc2c(NCCc3ccc(Oc4ccccc4)cc3)nccn12 ? lowest

###

target-or-system: FGFR2 (N549H) (Homo sapiens, UniProt P21802, N549H)
Construct: purchased Millipore 14-742
experiment-summary: FGFR2 kinase activity assay (fluorescent ELISA)
Format: biochemical
settings: 30 μM compound
value-kind: inhibition at 30 µM (%)
Give just the numeric value; % need not be written.

Measured inhibition at 30 µM for this entry CC(C)OC(=O)Nc1nnc2c(NCc3ccc(C(F)(F)F)cc3)nccn12 [Compound 17] on FGFR2 (N549H) (Homo sapiens, UniProt P21802, N549H): 68.8

Record for CC(C)OC(=O)Nc1nnc2c(NCc3ccccc3F)nccn12 [Compound 84] under target or system FGFR2 (N549H) (Homo sapiens, UniProt P21802, N549H): inhibition at 30 µM reported as 84

Reported inhibition at 30 µM (FGFR2 (N549H) (Homo sapiens, UniProt P21802, N549H)) for entry Cc1ccc(CCNc2nccn3c(N)nnc23)cc1 [Compound 90] is 60.8

###

Please provide measured inhibition at 30 µM for the entries that follow.
target-or-system: FGFR2 (N549H) (Homo sapiens, UniProt P21802, N549H)
Construct: purchased Millipore 14-742
experiment-summary: FGFR2 kinase activity assay (fluorescent ELISA)
Type: biochemical
settings: 30 μM compound
Supply the numeric figure in %, leaving out any unit text.

inhibition at 30 µM measured on COc1ccc(C)cc1Nc1nccn2c(NC(=O)OC(C)C)nnc12 [Compound 23] = 50.9

Record Nc1nnc2c(NCc3ccccc3C(F)(F)F)nccn12 [Compound 143] , field inhibition at 30 µM: 73.2

Query COc1ccc(Nc2nccn3c(NC(=O)OC(C)C)nnc23)c(OC)c1 [Compound 35] yields inhibition at 30 µM of 57

Record CC(C)OC(=O)Nc1nnc2c(N(C)Cc3ccccc3)nccn12 [Compound 30] . Reported inhibition at 30 µM: 56.3

Consider CN(C)c1ccc(Nc2nccn3c(N)nnc23)cc1 [Compound 116] . Its measured inhibition at 30 µM is 50

Entry Nc1nnc2c(NCc3ccccc3F)nccn12 [Compound 153] — recorded inhibition at 30 µM = 72.9

###

target-or-system: FGFR2 (N549H) (Homo sapiens, UniProt P21802, N549H)
Construct: purchased Millipore 14-742
experiment-summary: FGFR2 kinase activity assay (fluorescent ELISA)
Type: biochemical
settings: 30 μM compound
Each entry belongs to exactly one class, chosen by where its inhibition at 30 µM falls: lo (below 60%), mid (60% to below 70%), hi (70% or more)

Band assignment needed for Cc1ccccc1Nc1nccn2c(N)nnc12 [Compound 157] please. lo

Into which category would you place COc1ccccc1Nc1nccn2c(NC(=O)OC(C)C)nnc12 [Compound 39] ? hi

Exam item: assign CC(C)OC(=O)Nc1nnc2c(N(C)c3ccc(Cl)cc3)nccn12 [Compound 87] to the correct category. lo

Band of CC(C)OC(=O)Nc1nnc2c(NCCc3ccc(F)cc3)nccn12 [Compound 28] ? lo

Class (by measured inhibition at 30 µM) for Nc1nnc2c(Nc3ccccc3F)nccn12 [Compound 121] mid

The entry to classify is COc1ccc(Cl)cc1Nc1nccn2c(NC(=O)OC(C)C)nnc12 [Compound 7] ; which class holds it? lo

Lab note: which band did COc1ccccc1CNc1nccn2c(NC(=O)OC(C)C)nnc12 [Compound 15] land in? lo

Band for COc1ccccc1CCNc1nccn2c(NC(=O)OC(C)C)nnc12 [Compound 58] ? hi

Class for Nc1nnc2c(NCc3ccc(C(F)(F)F)cc3)nccn12 [Compound 100] ? mid

# bin label for Cc1ccc(N(C)c2nccn3c(N)nnc23)cc1 [Compound 107] hi

The measurements presented in this section are drawn from patent US8329705B2.
